Test system: Wheat and Barley and weed species
protocol notes: Post-Emergent Test III: postemergent herbicidal activity in wheat and barley, visual rating after 21 d and probit GR20/GR50/GR80/GR90 (Tables 9-13)
Assay type: in vivo
run parameters: APESV bentgrass (Apera spica-venti); growth reduction of 90%; probit analysis

{"entry smiles": "COC(=O)c1nc(-c2ccc3c(c2F)OC(F)(F)O3)c(F)c(N)c1Cl", "GR90 APESV": "138 g ai/ha"}
{"entry smiles": "COC(=O)c1nc(-c2cc3c(cc2F)OC(F)(F)O3)c(F)c(N)c1Cl", "GR90 APESV": "89 g ai/ha"}
{"entry smiles": "COC(=O)c1nc(-c2c(F)cc3c(c2F)OC(F)(F)O3)cc(N)c1Cl", "GR90 APESV": ">140 g ai/ha"}
